Taken from paper PMC10626578.

Assay: Stability in mouse plasma
Assay type: in vitro ADME
Settings: read-out: mouse plasma stability t½
Recorded Metric: half-life

* CC(=O)N1CCc2c1ccc(Cl)c2Cl | > 4 h

* * *

Test system: MDR1
Test: Permeability using MDR1-MDCKII cell monolayer
Assay type: in vitro ADME
Details: dog, MDCK-MDR1, Table S3; mean n=2; read-out: Basal to Apical Papp
Recorded Metric: Papp (×10⁻⁶ cm/s)

- CC(=O)N1CCc2c1ccc(Cl)c2Cl [Compound 4w, 1-(4,5-Dichloroindolin-1-yl)ethan-1-one]: 21.1

* * *

System: MDR1
Test: Permeability using MDR1-MDCKII cell monolayer
Assay type: in vitro ADME
Conditions: dog, MDCK-MDR1, Table S3; mean n=2; read-out: Apical to Basal Papp
Recorded Metric: Papp (nm/s)

- CC(=O)N1CCc2c1ccc(Cl)c2Cl: 355

* * *

Molecular target: Notum (full length) (Homo sapiens)
Construct: Screening 4w and 4y in the biochemical assay using full length Notum and OPTS
Assay: Notum-OPTS biochemical assay, full length Notum
Settings: Notum (full length); read-out: OPTS, IC50
Experimental: Early leads 4v, 4w and 4y were then evaluated in additional pharmacology and ADME screens (Table 3). […] Screening 4w and 4y in the biochemical assay using full length Notum and OPTS confirmed potent inhibition of Notum activity. Methods have been described in detail.
pIC50: −log10 of the molar value.
Catalogue of compounds with associated pIC50
Recorded Metric: pIC50

• CC(=O)N1CC2(CC2)c2c(Cl)cccc21 = 7.96
• CC(=O)N1CCc2c1ccc(Cl)c2Cl = 8.31

* * *

Tested on: MDR1
Assay: Permeability using MDR1-MDCKII cell monolayer
Type: in vitro ADME
Conditions: dog, MDCK-MDR1, Table 3; basal to apical; read-out: MDCK-MDR1 BA Papp
Recorded Metric: Papp (×10⁻⁶ cm/s)

* CC(=O)N1CCc2c1ccc(Cl)c2Cl | 21

* * *

Target: Notum (core, 81–451C330S) (Homo sapiens, UniProt Q6P988, C330S)
Construct: high-throughput biochemical assay with Notum (81–451C330S) and OPTS as a synthetic fluorescent substrate; made in house
Assay: Notum-OPTS biochemical assay, Notum (81–451C330S)
Conditions: Table 4; mean ± s.d. of n = 4–8; >10 = 20–50% inhibition @ 10 μM; read-out: Notum IC50
Overview of reported IC50 across a group of compounds:
Recorded Metric: IC50 (µM)

* O=C1CCC2Cc3c(Cl)cccc3N12 (stereo not shown) | 0.49
* Clc1ccc2c(c1Cl)CCN2 | 3.6
* CS(=O)(=O)N1CC2(CC2)c2c(Cl)cccc21 | 1
* CC12CCC(=O)N1c1ccccc1C2 (stereo not shown) | 2.1
* CC(=O)n1ccc2c(Cl)cccc21 | 0.73
* CC(C)C(=O)N1CC2(CC2)c2c(Cl)cccc21 | 4.4
* CC(=O)n1ccc2c(Cl)c(Cl)ccc21 | 0.031
* O=C1CCC2Cc3cc(Cl)ccc3N12 (stereo not shown) | 1.2
* O=C1OCC2Cc3ccccc3N12 (stereo not shown) | 6.1
* O=C1CCC2Cc3ccccc3N12 (stereo not shown) | 0.18
* CC(=O)N1CCOc2c(Cl)cccc21 | 8.5

* * *

Target: Notum (Homo sapiens)
Construct: host or cells: TCF/LEF Reporter (Luciferase) cell line; Notum added exogenously
Sequence (Q6P988 20-496): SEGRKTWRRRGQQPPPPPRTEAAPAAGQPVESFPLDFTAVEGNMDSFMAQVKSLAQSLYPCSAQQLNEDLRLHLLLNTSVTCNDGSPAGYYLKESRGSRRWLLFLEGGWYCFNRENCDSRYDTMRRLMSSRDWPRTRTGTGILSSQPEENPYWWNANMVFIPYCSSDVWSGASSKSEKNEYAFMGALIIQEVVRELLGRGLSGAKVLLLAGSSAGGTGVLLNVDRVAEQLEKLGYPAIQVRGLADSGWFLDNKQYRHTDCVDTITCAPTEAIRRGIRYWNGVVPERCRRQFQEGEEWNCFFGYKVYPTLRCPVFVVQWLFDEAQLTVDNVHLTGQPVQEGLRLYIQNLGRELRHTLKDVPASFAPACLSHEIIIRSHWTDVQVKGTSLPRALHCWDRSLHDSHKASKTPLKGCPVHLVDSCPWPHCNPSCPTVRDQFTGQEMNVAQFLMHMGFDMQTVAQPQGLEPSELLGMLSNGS
Test: TCF/LEF Reporter (Luciferase) cell line with exogenous WNT3a and Notum
Type: cell-based
Conditions: Notum (core, 81–451C330S); restoration of Wnt signalling; read-out: TCF-LEF, EC50
Quick reference for EC50 among some compounds
Recorded Metric: EC50 (nM)

* CC(=O)N1CCc2c1ccc(Cl)c2C(F)(F)F [Compound 4v] | 28
* CC(=O)N1CC2(CC2)c2c(Cl)cccc21 [Compound 4y] | 35
* CC(=O)N1CCc2c1ccc(Cl)c2Cl [Compound 4w, 1-(4,5-Dichloroindolin-1-yl)ethan-1-one] | 22
